target: S1PR5 (Homo sapiens); construct: purchased; experiment: competitive [^32P]S1P binding assay on cell membranes, S1PR5; settings: Table 5
Sequence (Q9H228 whole entry): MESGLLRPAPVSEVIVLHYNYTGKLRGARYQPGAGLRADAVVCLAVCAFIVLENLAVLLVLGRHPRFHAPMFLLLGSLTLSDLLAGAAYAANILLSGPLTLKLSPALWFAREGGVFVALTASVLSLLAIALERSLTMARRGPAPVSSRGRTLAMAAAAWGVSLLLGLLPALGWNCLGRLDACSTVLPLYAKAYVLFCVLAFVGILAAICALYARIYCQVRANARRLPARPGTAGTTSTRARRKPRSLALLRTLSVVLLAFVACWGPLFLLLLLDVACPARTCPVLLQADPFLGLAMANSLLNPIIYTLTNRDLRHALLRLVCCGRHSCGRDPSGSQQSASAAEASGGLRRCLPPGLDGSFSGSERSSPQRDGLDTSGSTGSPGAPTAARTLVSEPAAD
measurementLabel: IC50

q: Name the reported IC50 value associated with the molecule `COc1cc(OC)c(NC(=O)Cn2c(=O)n(CC(=O)Nc3ccccc3OC)c(=O)c3ccccc32)cc1Cl`
a: > 1 µM

====

molecular target: S1PR2 (Homo sapiens, UniProt O95136); construct: purchased; assay: competitive [^32P]S1P binding assay on cell membranes, S1PR2; conditions: Table 5; read-out: IC50 S1PR2
Sequence (O95136 whole entry): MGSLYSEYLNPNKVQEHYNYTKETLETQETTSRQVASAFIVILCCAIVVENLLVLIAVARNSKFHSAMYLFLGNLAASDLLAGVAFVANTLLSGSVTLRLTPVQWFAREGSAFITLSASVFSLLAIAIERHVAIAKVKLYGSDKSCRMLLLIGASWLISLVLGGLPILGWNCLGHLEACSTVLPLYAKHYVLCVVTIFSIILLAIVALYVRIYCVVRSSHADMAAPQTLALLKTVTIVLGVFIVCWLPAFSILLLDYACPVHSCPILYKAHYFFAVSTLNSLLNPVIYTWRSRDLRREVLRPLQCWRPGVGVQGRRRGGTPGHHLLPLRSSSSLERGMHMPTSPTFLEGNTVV
measurementLabel: IC50

q: What measured IC50 goes with `COc1cc(OC)c(NC(=O)Cn2c(=O)n(CC(=O)N(C)C)c(=O)c3ccccc32)cc1Cl` ?
a: 0.175 µM

q: Can you look up the measured IC50 of `CCC(CC)CC1(O)CCN(C(=O)Nc2ccc(Oc3ccc(S(C)(=O)=O)cc3)cc2)CC1` for me?
a: > 1 µM

q: Give the measured IC50 of `CC(C)CC1(O)CCN(C(=O)Nc2cc(Oc3ccc(S(C)(=O)=O)cc3)cc(C(F)(F)F)c2)CC1` .
a: 0.27 µM

q: Reported IC50 for `CC(C)CC1(O)CCN(C(=O)Nc2ccc(NC(=O)N3CCC(O)(CC(C)C)CC3)cc2)CC1` : what is it?
a: > 1 µM

q: # IC50 lookup, item `CCOc1ccc(C(=O)Cn2c(=O)n(CCCC(=O)N3CCCC3)c(=O)c3cc(Cl)ccc32)cc1Cl`
a: > 1 µM

q: For `CCC1(O)CCN(C(=O)Nc2cc(Oc3ccc(S(C)(=O)=O)cc3)cc(C(F)(F)F)c2)CC1` , what is its reported IC50?
a: > 1 µM

q: Consider the compound shown here: `CCOc1ccc(C(=O)Cn2c(=O)n(CC)c(=O)c3ccccc32)cc1Cl` What is its recorded IC50?
a: > 1 µM

q: Quick check: IC50 of `CCC(CC)CC1(O)CCN(C(=O)Nc2cc(Nc3ccc(S(C)(=O)=O)cc3)cc(C(F)(F)F)c2)CC1` ?
a: > 1 µM

====

target: S1PR2 (Homo sapiens, UniProt O95136); construct: purchased; test: competitive [^32P]S1P binding assay on cell membranes, S1PR2; details: Table 5; read-out: IC50 S1PR2
Label true when IC50 is strictly below 80 nM; at or above that, label false.

q: In plain terms, does CCC(CC)CC1(O)CCN(C(=O)Nc2cc(C(=O)c3ccc(S(C)(=O)=O)cc3)cc(C(F)(F)F)c2)CC1 [TZ59-092] come in under 80 nM for IC50?
a: false

q: Dear reviewer, please state whether `COc1ccc(C(=O)Cn2c(=O)n(CCCC(=O)N3CCCC3)c(=O)c3cc(Cl)ccc32)cc1Cl` has IC50 strictly beneath 80 nM.
a: false

q: Dear colleague, could you confirm whether IC50 of `CCC(CC)CC1(O)CCN(C(=O)Nc2cc(Oc3ccc(F)cc3)cc(Oc3ccc4c(c3)CCNC4=O)c2)CC1` falls below 80 nM? Thanks.
a: true

q: Please state whether IC50 is below 80 nM for `CCOc1ccc(C(=O)Cn2c(=O)n(CCF)c(=O)c3ccccc32)cc1Cl`
a: false

q: Is the reported IC50 for `COc1cc(OC)c(NC(=O)Cn2c(=O)n(CC(=O)Nc3cc(Cl)nc(Cl)c3)c(=O)c3ccccc32)cc1Cl` strictly below 80 nM?
a: false

q: For `COc1cc(OC)c(NC(=O)CN2C(=O)N(CC(=O)Nc3ccccc3OC)Cc3ccccc32)cc1Cl` , is the recorded IC50 below the cut-off of 80 nM?
a: false

q: Take the compound `COc1ccc(C(=O)Cn2c(=O)n(CCCC(=O)NC3CCCC3)c(=O)c3cc(Cl)ccc32)cc1Cl` and say whether its IC50 is less than 80 nM.
a: false

q: Please check: IC50 for CNC(=O)c1ccc(Oc2cc(NC(=O)N3CCC(O)(CC(C)C)C3)cc(Oc3ccc(F)cc3)c2)cc1 (stereo not shown) , strictly under 80 nM or not?
a: true

q: Report whether reported IC50 is lower than 80 nM (strictly) for `CCOc1ccc(C(=O)Cn2c(=O)n(CCCC(=O)NC3CCCC3)c(=O)c3ccccc32)cc1Cl`
a: false

q: Report whether reported IC50 is lower than 80 nM (strictly) for `CCC(CC)CC1(O)CCN(C(=O)Nc2cc(Oc3ccc(OCCF)cc3)cc(Oc3ccc(S(C)(=O)=O)cc3)c2)CC1`
a: false

q: Does the reported IC50 of the following compound sit strictly below 80 nM? `COc1ccc(C(=O)Cn2c(=O)n(CC(=O)Nc3ccccc3OC)c(=O)c3ccccc32)cc1Cl`
a: false

q: Dear reviewer, please state whether `CC(C)C1(O)CCN(C(=O)Nc2cc(Oc3ccc(S(C)(=O)=O)cc3)cc(C(F)(F)F)c2)CC1` has IC50 strictly beneath 80 nM.
a: false

q: Hello, I'm reviewing records and need to know if IC50 of `CCC(CC)CC1(O)CCN(C(=O)Nc2cc(Oc3ccc(C(=O)NC)cc3)cc(C(F)(F)F)c2)CC1` is below 80 nM. Could you check?
a: false

q: Please let me know if `CCC(CC)CC1(O)CCN(C(=O)Nc2cc(Oc3ccc(S(C)(=O)=O)cc3)cc(Oc3ccc(F)nc3)c2)CC1` shows IC50 below 80 nM.
a: false

q: Answer whether the compound COc1cc(OC)c(NC(=O)Cn2c(=O)n(CC(=O)NCCO)c(=O)c3ccccc32)cc1Cl [TZ59-130] has IC50 strictly less than 80 nM
a: true

q: Threshold test, IC50 < 80 nM: `CNC(=O)Cn1c(=O)c2ccccc2n(CC(=O)Nc2cc(Cl)c(OC)cc2OC)c1=O`
a: false

====

For each record, write down the corresponding IC50.
molecular target: S1PR2 (Homo sapiens); construct: purchased; assay: competitive [^32P]S1P binding assay on cell membranes, S1PR2; details: Table 5; read-out: IC50 S1PR2

q: Which IC50 value belongs to CC(C)CC1(O)CCN(C(=O)Nc2cc(Oc3ccc(F)cc3)cc(Oc3ccc(C(=O)NCCF)cc3)c2)CC1 [TZ57-029] ?
a: 195 nM

q: What value of measured IC50 is listed for COc1cc(OC)c(NC(=O)Cn2c(=O)n(CCN3CCOCC3)c(=O)c3ccccc32)cc1Cl [TZ62-102] ?
a: > 1000 nM

q: Given CCC(CC)CC1(O)CCN(C(=O)Nc2cc(Oc3ccc(F)cc3)cc(N3CCN(C)CC3)c2)CC1 [TZ57-013] , state its recorded IC50.
a: > 1000 nM

q: What IC50 value was documented for this molecule, CCC(CC)CC1(O)CCN(C(=O)Nc2cc(F)cc(C(O)c3ccc(S(C)(=O)=O)cc3)c2)CC1 (centres unmarked) [TZ59-080] ?
a: > 1000 nM

q: # IC50 lookup, item COc1ccc(NC(=O)Cn2c(=O)c3ccccc3n(CC(=O)Nc3cc(Cl)c(OC)cc3OC)c2=O)cc1 [TZ59-104]
a: 5.7 nM

q: # get_value(readout='IC50', item= CCC(CC)CC1(O)CCN(C(=O)Nc2cc(N(C(=O)OC(C)(C)C)c3ccc(S(C)(=O)=O)cc3)cc(C(F)(F)F)c2)CC1 [TZ59-061] )
a: > 1000 nM

q: Fill in the blank: the reported IC50 of CCC(CC)CC1(O)CCN(C(=O)Nc2cc(F)cc(C(F)(F)F)c2)CC1 [TZ59-042] is ____.
a: > 1000 nM

q: Please look up its IC50: CCOc1ccc(C(=O)Cn2c(=O)n(CCCC(=O)N3CCCC3)c(=O)c3ccccc32)cc1Cl [TZ62-050]
a: > 1000 nM

====

assay: biodistribution study of [^11C]2c in EAE and control mice; type: in vivo, female SJL mice; conditions: female, SJL, mouse, brain, other: injection, control mice
measurementLabel: tissue uptake (%ID/g)
Numbers only here, please. The scale is %ID/g.

q: Would you mind telling me what tissue uptake value was observed for COc1ccc(NC(=O)Cn2c(=O)c3ccccc3n(CC(=O)Nc3cc(Cl)c(OC)cc3OC)c2=O)cc1 [[^11C]2c] ?
a: 0.452

====

assay: biodistribution study of [^11C]2c in EAE and control mice; format: in vivo, female SJL mice; conditions: female, SJL, mouse, brain, other: injection, EAE mice
measurementLabel: tissue uptake (%ID/g)
Give just the numeric value; %ID/g need not be written.

q: Which value of tissue uptake has been reported for COc1ccc(NC(=O)Cn2c(=O)c3ccccc3n(CC(=O)Nc3cc(Cl)c(OC)cc3OC)c2=O)cc1 [[^11C]2c] in the records?
a: 0.699

====

molecular target: S1PR2 (Homo sapiens); construct: purchased; test: competitive [^32P]S1P binding assay on cell membranes, S1PR2; conditions: [^32P]S1P competition; read-out: IC50 value, S1PR2 binding
For each entry below, report its IC50 value.
Write the answer as a number in nM, unit excluded.

q: Look up IC50 with S1PR2 (Homo sapiens) for this molecule: CCC(CC)CC1(O)CCN(C(=O)Nc2cc(Oc3ccc(F)cc3)cc(Oc3ccc(OC)cc3)c2)CC1 [Compound 28a]
a: 188

q: Look up IC50 with S1PR2 (Homo sapiens) for this molecule: `COc1ccc(NC(=O)Cn2c(=O)c3ccccc3n(CC(=O)Nc3cc(Cl)c(OC)cc3OC)c2=O)cc1`
a: 5.7

q: Request body: readout IC50, system S1PR2 (Homo sapiens), query CCC(CC)CC1(O)CCN(C(=O)Nc2cc(Oc3ccc(F)cc3)cc(Sc3ccc(S(C)(=O)=O)cc3)c2)CC1 [Compound 28e] . Return the value.
a: 14.6

q: For the record `COc1cc(OC)c(NC(=O)Cn2c(=O)n(CC(=O)Nc3ccc(O)cc3)c(=O)c3ccccc32)cc1Cl` , what value of IC50 is listed for S1PR2 (Homo sapiens)?
a: 2.6

q: Provide the documented IC50 with S1PR2 (Homo sapiens) as the system for CCC(CC)CC1(O)CCN(C(=O)Nc2cc(Oc3ccc(S(C)(=O)=O)cc3)cc(C(F)(F)F)c2)CC1 [Compound 21f]
a: 270
